B1: LINE1-mini (parent)
chain: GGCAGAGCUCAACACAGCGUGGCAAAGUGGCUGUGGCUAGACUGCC

variants of: B1; test: self-cleavage, relative activity (ratio to wild type); higher = more cleavage; in vitro, sequencing; the parent is a self-cleaving ribozyme

residueChange	self-cleavage
G36C C37A	0.1
A16C C46A	0.1
A16C G22U	0.1
